- Assay: Pharmacokinetics assay in dogs after intravenous administration
- Type: in vivo
- Settings: male, dog, plasma, Beagle dogs, 0.3 mg/kg, read-out: Apparent Distribution Volume Vz
- Method: Beagle dogs were used as test animals. The drug concentration in plasma at different time points was determined by LC/MS/MS after intravenous administration of the compound of Example 5 to the Beagle dogs. The pharmacokinetic behavior of the compound of the present invention was studied and evaluated in Beagle dogs. […] The concentration of the test compound in Beagle dog plasma after intravenous administration was determined by LC-MS/MS.
Experimental Readout: Vd

{"Compound String": "CC(C)C[C@@H](NC(=O)[C@@H](Cc1ccccc1)NC(=O)CNC[C@H](C)c1ccccc1)C(=O)N[C@H](CCCCN)C(=O)N1CCC(N)(C(=O)O)CC1", "Observed": "0.296 L/kg"}

----------
- Assay: Pharmacokinetics assay in rats after intravenous administration
- Format: in vivo
- Settings: both sexes, Sprague-Dawley, rat, plasma, SD rats, 1 mg/kg, read-out: Clearance CL
Where a SMILES comes first, the peptide text is derived from it. [ ]: non-standard residue; d: D form. The star is where a group is joined. Piperidin1yl(4-NH2,4-COOH) = NC1(C(=O)O)CCN(*)CC1; Gly(NCH2CH2Ph) = O=C(O)CNCCc1ccccc1
Experimental Readout: clearance

{"Molecule": "CC(C)C[C@@H](NC(=O)[C@@H](Cc1ccccc1)NC(=O)CNC[C@H](C)c1ccccc1)C(=O)N[C@H](CCCCN)C(=O)N1CCC(N)(C(=O)O)CC1 [Example 5]", "Observed": "10.1 mL/min/kg"}
{"Molecule": "CC(C)C[C@@H](NC(=O)[C@@H](Cc1ccccc1)NC(=O)CNCCc1ccccc1)C(=O)N[C@H](CCCCN)C(=O)N1CCC(N)(C(=O)O)CC1 [Example 8] (H-[Gly(NCH2CH2Ph)][dF][dL][dK]-{Piperidin1yl(4-NH2,4-COOH)})", "Observed": "11.6 mL/min/kg"}
{"Molecule": "CC(C)C[C@@H](NC(=O)[C@@H](Cc1ccccc1)NC(=O)CNC[C@@H](C)c1ccccc1)C(=O)N[C@H](CCCCN)C(=O)N1CCC(N)(C(=O)O)CC1 [Example 2]", "Observed": "6.66 mL/min/kg"}

----------
- Assay: Pharmacokinetics assay in dogs after intravenous administration
- Assay type: in vivo
- Settings: male, dog, plasma, Beagle dogs, 0.3 mg/kg, read-out: Mean Residence Time MRT

{"Compound String": "CC(C)C[C@@H](NC(=O)[C@@H](Cc1ccccc1)NC(=O)CNC[C@H](C)c1ccccc1)C(=O)N[C@H](CCCCN)C(=O)N1CCC(N)(C(=O)O)CC1", "MRT, h": 1.43}

----------
EC50: recorded values
- Target Entity: human KOR (h-KOR) receptors (Homo sapiens)
- Sequence (P41145 whole entry): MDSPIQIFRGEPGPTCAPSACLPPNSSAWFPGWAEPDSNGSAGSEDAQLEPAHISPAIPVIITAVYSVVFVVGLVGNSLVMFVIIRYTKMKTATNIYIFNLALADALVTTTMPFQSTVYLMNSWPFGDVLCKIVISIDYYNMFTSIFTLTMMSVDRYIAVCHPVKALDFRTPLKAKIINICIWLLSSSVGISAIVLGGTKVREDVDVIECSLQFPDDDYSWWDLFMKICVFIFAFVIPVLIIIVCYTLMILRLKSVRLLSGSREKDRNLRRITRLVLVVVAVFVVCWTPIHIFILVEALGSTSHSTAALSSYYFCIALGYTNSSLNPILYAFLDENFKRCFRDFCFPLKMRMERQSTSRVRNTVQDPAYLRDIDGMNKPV
- Assay: h-KOR agonist activity test (cAMP/CRE-luciferase reporter in HEK293/h-KOR/CRE cells)
- Settings: Forskolin, 4 hours, luciferase chemiluminescence, read-out: EC50 on agonizing h-KOR receptor and affecting cAMP levels
Where a SMILES comes first, the peptide text is derived from it. [ ]: non-standard residue; d: D form. The star is where a group is joined. N(Indan-2-yl)Gly = O=C(O)CNC1Cc2ccccc2C1; Morpholide = C1CN(*)CCO1

{"Compound": "CC(C)C[C@@H](NC(=O)[C@@H](Cc1ccccc1)NC(=O)CNC1Cc2ccccc2C1)C(=O)N[C@H](CCCCN)C(=O)N1CCOCC1 [Example 10] (H-[N(Indan-2-yl)Gly][dF][dL][dK]-Morpholide)", "Relation Sign": ">", "EC50, nM": 1}
{"Compound": "CC(C)C[C@@H](NC(=O)[C@@H](Cc1ccccc1)NC(=O)CNC[C@@H](c1ccccc1)C(C)C)C(=O)N[C@H](CCCCN)C(=O)N1CCC(N)(C(=O)O)CC1", "Relation Sign": "=", "EC50, nM": 0.009}
{"Compound": "CC(C)C[C@@H](NC(=O)[C@@H](Cc1ccccc1)NC(=O)CN[C@H]1C[C@@H]1c1ccccc1)C(=O)N[C@H](CCCCN)C(=O)N1CCOCC1", "Relation Sign": "=", "EC50, nM": 0.079}

----------
- Assay: Pharmacokinetics assay in dogs after intravenous administration
- Assay type: in vivo
- Settings: male, dog, plasma, Beagle dogs, 0.3 mg/kg, read-out: Area Under Curve AUC
Experimental Readout: AUC (ng·h/mL)

{"Compound String": "CC(C)C[C@@H](NC(=O)[C@@H](Cc1ccccc1)NC(=O)CNC[C@H](C)c1ccccc1)C(=O)N[C@H](CCCCN)C(=O)N1CCC(N)(C(=O)O)CC1", "Experimental Readout": "AUC", "Observed": 1980}

----------
EC50 for assorted compounds
- Target Entity: human KOR (h-KOR) receptors (Homo sapiens)
- Assay: h-KOR agonist activity test (cAMP/CRE-luciferase reporter in HEK293/h-KOR/CRE cells)
- Settings: Forskolin, 4 hours, luciferase chemiluminescence, read-out: EC50 on agonizing h-KOR receptor and affecting cAMP levels
Where a SMILES comes first, the peptide text is derived from it. [ ]: non-standard residue; d: D form. The star is where a group is joined. Piperidin1yl(4-NH2,4-COOH) = NC1(C(=O)O)CCN(*)CC1; Gly(NCH2CH2Ph) = O=C(O)CNCCc1ccccc1

{"Compound": "CCC(CNCC(=O)N[C@H](Cc1ccccc1)C(=O)N[C@H](CC(C)C)C(=O)N[C@H](CCCCN)C(=O)N1CCC(N)(C(=O)O)CC1)c1ccccc1 (stereo partly drawn) [Example 7]", "EC50 / pM": 3}
{"Compound": "CC(C)C[C@@H](NC(=O)[C@@H](Cc1ccccc1)NC(=O)CNCC(C)(C)c1ccccc1)C(=O)N[C@H](CCCCN)C(=O)N1CCC(N)(C(=O)O)CC1 [Example 3]", "EC50 / pM": 4}
{"Compound": "CC(C)C[C@@H](NC(=O)[C@@H](Cc1ccccc1)NC(=O)CNCC1(c2ccccc2)CC1)C(=O)N[C@H](CCCCN)C(=O)N1CCC(N)(C(=O)O)CC1 [Example 1]", "EC50 / pM": 56}
{"Compound": "CC(C)C[C@@H](NC(=O)[C@@H](Cc1ccccc1)NC(=O)CNC[C@@H](C)c1ccccc1)C(=O)N[C@H](CCCCN)C(=O)N1CCC(N)(C(=O)O)CC1 [Example 2]", "EC50 / pM": 15}
{"Compound": "CC(C)C[C@@H](NC(=O)[C@@H](Cc1ccccc1)NC(=O)CNCCc1ccccc1)C(=O)N[C@H](CCCCN)C(=O)N1CCC(N)(C(=O)O)CC1 [Example 8] (H-[Gly(NCH2CH2Ph)][dF][dL][dK]-{Piperidin1yl(4-NH2,4-COOH)})", "EC50 / pM": 13}
{"Compound": "CC(C)C[C@@H](NC(=O)[C@@H](Cc1ccccc1)NC(=O)CNC[C@H](C)c1ccccc1)C(=O)N[C@H](CCCCN)C(=O)N1CCC(N)(C(=O)O)CC1 [Example 5]", "EC50 / pM": 1}

----------
- Assay: Pharmacokinetics assay in rats after intravenous administration
- Format: in vivo
- Settings: both sexes, Sprague-Dawley, rat, plasma, SD rats, 1 mg/kg, read-out: Apparent Distribution Volume Vz
Where a SMILES comes first, the peptide text is derived from it. [ ]: non-standard residue; d: D form. The star is where a group is joined. Piperidin1yl(4-NH2,4-COOH) = NC1(C(=O)O)CCN(*)CC1; Gly(NCH2CH2Ph) = O=C(O)CNCCc1ccccc1
Experimental Readout: Vd (L/kg)

{"Compound": "CC(C)C[C@@H](NC(=O)[C@@H](Cc1ccccc1)NC(=O)CNC[C@@H](C)c1ccccc1)C(=O)N[C@H](CCCCN)C(=O)N1CCC(N)(C(=O)O)CC1 [Example 2]", "Unit Tag": "L/kg", "Observed": 0.28}
{"Compound": "CC(C)C[C@@H](NC(=O)[C@@H](Cc1ccccc1)NC(=O)CNCCc1ccccc1)C(=O)N[C@H](CCCCN)C(=O)N1CCC(N)(C(=O)O)CC1 [Example 8] (H-[Gly(NCH2CH2Ph)][dF][dL][dK]-{Piperidin1yl(4-NH2,4-COOH)})", "Unit Tag": "L/kg", "Observed": 0.499}
{"Compound": "CC(C)C[C@@H](NC(=O)[C@@H](Cc1ccccc1)NC(=O)CNC[C@H](C)c1ccccc1)C(=O)N[C@H](CCCCN)C(=O)N1CCC(N)(C(=O)O)CC1 [Example 5]", "Unit Tag": "L/kg", "Observed": 0.41}
